Target: T1, recombinant human IL6R-his (human, UniProt P08887 20-365)
T1 construct: In house made; the entry includes the C-terminal His tag; also called human IL6R-his protein
T1 sequence: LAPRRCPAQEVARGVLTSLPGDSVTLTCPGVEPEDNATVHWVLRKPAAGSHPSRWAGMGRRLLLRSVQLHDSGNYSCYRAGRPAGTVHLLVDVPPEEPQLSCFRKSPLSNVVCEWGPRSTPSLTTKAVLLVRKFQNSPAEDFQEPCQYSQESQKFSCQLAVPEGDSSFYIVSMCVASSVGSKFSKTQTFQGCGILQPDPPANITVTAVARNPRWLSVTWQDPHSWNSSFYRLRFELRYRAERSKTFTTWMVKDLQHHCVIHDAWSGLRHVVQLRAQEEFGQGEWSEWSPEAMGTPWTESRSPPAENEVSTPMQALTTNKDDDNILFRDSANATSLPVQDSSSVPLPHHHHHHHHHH
Test: SPR Biacore; antibody from diluted cell supernatant captured by anti-human IgG on CM5, human IL6R in flow
value-kind: pKd
// pKd is dimensionless: -log10 of concentration (M)

# binder, pKd
rows = [
    ("humanized antibody hu1H7-V11 (antibody, human IgG1, kappa, V domains shown, Human IgG1 / kappa) VH: QVQLVQSGAEVKKPGASVKVSCKASGYTFTNYWMHWVRQAPGQGLEWIGEINPTNGRTNYNENFKSRVTLTVDTSTSTVYMELSSLRSEDTAVYYCARLNTHYVFDSWGQGTLVTVSS VL: EIVLTQSPGTLSLSPGERATLSCSVSSSISSNYLHWYQQKPGLSPRLLISRTSTLASGIPARFSGSGSGTEFTLTISRLQSEDFAVYYCQQGSGIPFTFGQGTKLEIKR", 9.07),
    ("humanized antibody hu1H7-V1-2 (antibody, human IgG1, kappa, V domains shown, Human IgG1 / kappa; also called hu1H7-Vl-2) VH: QVQLVQSGAEVKKPGASVKVSCKASGYTFTNYWMHWVKQAPGQGLDWIGEINPTNGRTNYNENFKSKATLTVDKSTSTAYMELSSLRSEDTAVYYCARLNTHYVFDSWGQGTLVTVSS VL: EIVLTQSPGTLSLSPGERATLTCSVSSSISSNYLHWYQQKPGFSPRLLISRTSTLASGIPARFSGSGSGTSYSLTISRMQSEDFAVYYCQQGSGIPFTFGQGTKLEIKR", 9.20),
]

Consider now this further binder.
## Input Would you kindly share the measured pKd for humanized antibody hu1H7-V9 (antibody, human IgG1, kappa, V domains shown, Human IgG1 / kappa) VH: QVQLVQSGAEVKKPGASVKVSCKASGYTFTNYWMHWVRQAPGQGLEWIGEINPTNGRTNYNENFKSKVTMTVDTSTSTVYMELSSLRSEDTAVYYCARLNTHYVFDSWGQGTLVTVSS VL: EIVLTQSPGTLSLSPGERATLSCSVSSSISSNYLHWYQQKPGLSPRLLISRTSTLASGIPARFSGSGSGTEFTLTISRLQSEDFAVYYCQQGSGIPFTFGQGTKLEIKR ?
## Output 8.98
